Molecular target: HGFR (Homo sapiens, UniProt P08581)
Construct: purchased Upstate 14-526
Sequence (P08581 974-1390 limits assumed): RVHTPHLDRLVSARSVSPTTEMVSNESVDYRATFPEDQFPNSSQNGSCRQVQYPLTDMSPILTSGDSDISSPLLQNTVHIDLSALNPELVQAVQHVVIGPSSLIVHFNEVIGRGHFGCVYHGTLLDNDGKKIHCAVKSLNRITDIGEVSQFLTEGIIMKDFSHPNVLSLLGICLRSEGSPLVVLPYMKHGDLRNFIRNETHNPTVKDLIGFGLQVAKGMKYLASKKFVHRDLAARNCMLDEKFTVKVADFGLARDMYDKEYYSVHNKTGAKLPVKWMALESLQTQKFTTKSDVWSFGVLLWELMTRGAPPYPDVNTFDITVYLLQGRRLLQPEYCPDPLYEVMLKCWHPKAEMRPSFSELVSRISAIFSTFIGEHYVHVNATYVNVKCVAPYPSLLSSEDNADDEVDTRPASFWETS
Assay: HGFR continuous-coupled spectrophotometric assay
Type: biochemical
Settings: Table 3, column 'Ki (μM) or I (%)': cells without % sign; read-out: Ki
Field 'label' (enum: yes (1) / no (0)). Set to yes (1) when Ki is strictly under 0.09 µM; else no (0).

**Q:** In plain terms, does CCC(Oc1cc(-c2ccc(C(=O)N3C[C@@H](C)N[C@@H](C)C3)cc2)cnc1N)c1c(Cl)cccc1Cl (stereo partly shown) come in under 0.09 µM for Ki?
**A:** no (0)

**Q:** Strictly below 0.09 µM in Ki? CC(Oc1cc(-c2ccc(C(=O)N3CC4C(N)C4C3)cc2)cnc1N)c1c(Cl)ccc(F)c1Cl (stereo not shown)
**A:** yes (1)

**Q:** Input CC(Oc1cc(-c2ccc(C(=O)N3CCCCC3)cc2)cnc1N)c1c(Cl)ccc(F)c1Cl (stereo not shown) ; condition: Ki strictly below 0.09 µM. Does it hold?
**A:** yes (1)

**Q:** # TODO verify Ki < 0.09 µM strictly for this molecule: CC(Oc1cc(-c2ccc(C(=O)N3C[C@@H](O)[C@@H](O)C3)cc2)cnc1N)c1c(Cl)ccc(F)c1Cl (stereo partly shown)
**A:** yes (1)

**Q:** Lab log: compare recorded Ki with 0.09 µM; is it strictly lower for Cc1cc(-c2cnc(N)c(OC(C)c3c(Cl)ccc(F)c3Cl)c2)ccc1C(=O)N1C[C@@H](C)N[C@@H](C)C1 (stereo partly shown) ?
**A:** no (0)

**Q:** Here's an entry: CC(Oc1cc(-c2ccc(C(=O)N3CCOCC3)cc2)cnc1N)c1c(Cl)ccc(F)c1Cl (stereo not shown) . Is its Ki below 0.09 µM?
**A:** yes (1)
